protocol details: Particle characteristics of the prepared formulation by particle size analyzer (Dynamic Light Scattering, DLS)
Type: physicochemical
study conditions: mRNA formulation; lipid compound:DMG-PEG:DSPC:Cholesterol=50:1.5:10:38.5; N/P ratio 10; buffer exchanged to PBS
Field: PDI (PI). Provide a value for each of the compounds that follow.
Would you mind answering with just the numeric figure?

The recorded PDI (PI) for entry CCCCCCCCC(CCCCCC)COC(=O)CCCCCNC(=O)CCN(CCCN(C)C)CCC(=O)NCCCCCC(=O)OCC(CCCCCC)CCCCCCCC (stereo not drawn) equals 0.199

So, CCCCCCCCC(CCCCCC)COC(=O)CCCCCNC(=O)CCN(CCC(=O)NCCCCCC(=O)OCC(CCCCCC)CCCCCCCC)CCN1CCOCC1 (stereo not drawn) ? Its PDI (PI) was 0.150

Form field PDI (PI), entry CCCCCCCCC(CCCCCC)COC(=O)CCCCCNC(=O)CCN(C)CCCN(C)CCC(=O)NCCCCCC(=O)OCC(CCCCCC)CCCCCCCC (stereo not drawn) : 0.171

// `CCCCCCC(CCCCCC)COC(=O)CCCCCCCNC(=O)CCN(C)CCCN(C)CCC(=O)NCCCCCCCC(=O)OCC(CCCCCC)CCCCCC` : PDI (PI) value = 0.188

According to the records, this compound CCCCCCCCCCCCC(CCCCCCCCCC)COC(=O)CCCCCNC(=O)CCN(CCN)CCC(=O)NCCCCCC(=O)OCC(CCCCCCCCCC)CCCCCCCCCCCC (stereo not drawn) displays PDI (PI) of 0.128

The recorded PDI (PI) for `CCCCCCCCCOC(=O)CCCCCNC(=O)CCN(CCCN(C)C)CCC(=O)NCCCCCC(=O)OCCCCCCCCC` is 0.167
